The origin of these recorded values is PubChem BioAssay (NCATS).

- assayText: Quantitative High-Throughput drug screen in 47 multiple myeloma cell lines against the NCATS MIPE library collection: KHM11_PLB cell viability assay (AID 1918962); further: nearly all actives have a fitted effect of over 35% in size
- assayConditions: KHM11 myeloma cell viability, CellTiter-Glo ATP luminescence, 48 h; series mostly up to 45.8 µM
Inconclusive results are not listed. Calls of active or inactive are those of the source. The call rests on the fitted dose curve; in most records, active means well fitted cell-killing curve with a large enough effect; inconclusive means small, poorly fitted or top-dose-only effect, or effect the other way; inactive means no such curve, though single readings can be large or run the other way.
Reply using exactly one outcome from 1 (yes) (active), 0 (no) (inactive)

Take a look at these entries with their results.
molecule: C[C@]12CCC(=O)C(O)=C1CC[C@@H]1[C@H]3CCC(=O)[C@@]3(C)CC[C@@H]12
assignedClass: 0 (no)

molecule: COC1=CC(C)=C[C@@H](C)[C@@H](O)[C@@H](C)CC(C)=CC=C[C@H](OC)[C@H]([C@@H](C)[C@@H](O)[C@H](C)[C@@]2(O)C[C@@H](O)[C@H](C)[C@@H](C(C)C)O2)OC1=O
assignedClass: 1 (yes)

molecule: C#CC1(O)CCC2C3CCC4=CC(=O)CCC4(C)C3CCC21C (stereo not given)
assignedClass: 0 (no)

We now examine a further molecule.
Problem: Name the outcome recorded for CC1=C(O)C(=O)C=C2C1=CC=C1[C@@]2(C)CC[C@@]2(C)[C@@H]3C[C@](C)(C(=O)O)CC[C@]3(C)CC[C@]12C in the assay.
Solution: 1 (yes)

* * *

- assayText: Quantitative High-Throughput drug screen in 47 multiple myeloma cell lines against the NCATS MIPE library collection: FR4_PLB cell viability assay (AID 1918924;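 further: 100% = DMSO-treated cells and 0% = wells with media only; nearly all actives have a fitted effect of over 35% in size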)
- assayConditions: FR4_PLB myeloma cells viability, CellTiter-Glo ATP, 48 h; series mostly up to 45.8 µM
Inconclusive results are not listed. Active and inactive are the calls of the source. Calls follow the shape of the dose curve; as a rule, active = well fitted cell-killing curve with a large enough effect; inconclusive = small, poorly fitted or top-dose-only effect, or effect the other way; inactive = no such curve, though single readings can be large or run the other way.
Reply using exactly one outcome from 1 for active, -1 for inactive

Take a look at these entries with their results.
molecule: Cc1nc(-c2ccc(-c3ccc(C(=O)N4CCc5cc6c(cc54)C4(CCN(C)CC4)CO6)cc3)c(C)c2)no1
assignedClass: -1

molecule: CC(=O)N(C)c1cccc(-c2ccnc3c(C(=O)c4cccs4)cnn23)c1
assignedClass: -1

We now examine a further molecule.
Problem: Name the outcome recorded for CC(N[C@H]1C[C@H]1c1ccccc1)c1ccc2c(c1)OCCO2 (some centres undefined) in the assay.
Solution: -1

* * *

- assayText: qHTS of pediatric cancer cell lines to identify multiple opportunities for drug repurposing: Confirmatory screen for U-2 OS cells (AID 1347122); further: nearly all actives have a fitted effect of over 65% in size
- assayConditions: U-2 OS osteosarcoma cell viability; series mostly up to 45.9 µM
- Method: Drug repurposing or repositioning has been offered as a strategy for drug development in oncology programs. […] [1] Shen, M et al. Quantitative high-throughput phenotypic screening of pediatric cancer cell lines identifies multiple opportunities for drug repurposing. […] Cells were assayed in growth media at a density of 500-1,000 cells/well. […] After a 15 min incubation at room temperature, samples were analyzed for luminescence intensity using a ViewLux High-throughput CCD imager equipped with clear filters.
Results filed as inconclusive are left out. The source made the active and inactive calls. Calls follow the shape of the dose curve; as a rule, active = well fitted cell-killing curve with a large enough effect; inconclusive = small, poorly fitted or top-dose-only effect; inactive = no such curve, though single readings can be large or run the other way.
Reply using exactly one outcome from T = active, F = inactive

Take a look at these entries with their results.
chemicalSmiles: O=[N+]([O-])c1c(Cl)c(Cl)cc(Cl)c1Cl
assignedClass: F
//
chemicalSmiles: CC=C(C)C(=O)O[C@H]1C(C)=C2[C@@H]3OC(=O)[C@@](C)(O)[C@@]3(O)[C@@H](OC(=O)CCC)C[C@](C)(OC(C)=O)[C@@H]2[C@@H]1OC(=O)CCCCCCC
assignedClass: F

Problem: Name the outcome recorded for O=C(Nc1ccncc1)C(=O)c1cn(Cc2ccc(Cl)cc2)c2ccccc12 in the assay.
Solution: T
